Ratio Ki overview
Species on record: Homo sapiens
Assay: Selectivity for delta opioid receptor over mu opioid receptor

{"columns": ["Line Notation", "Ratio Ki"],
 "data": [
  ["CN1CC[C@]23c4c5ccc(O)c4O[C@H]2c2[nH]c4ccc(Cl)cc4c2C[C@@]3(O)[C@H]1C5", 9],
  ["CN1CC[C@]23c4c5ccc(O)c4O[C@H]2c2[nH]c4ccccc4c2C[C@@]3(O)[C@H]1C5", 115],
  ["CN1CC[C@]23c4c5ccc(O)c4O[C@H]2c2[nH]c4ccc(Br)cc4c2C[C@@]3(O)[C@H]1C5", 8],
  ["CN1CC[C@]23c4c5ccc(O)c4O[C@H]2c2[nH]c4ccc(F)cc4c2C[C@@]3(O)[C@H]1C5", 9],
  ["CN1CC[C@]23c4c5ccc(O)c4O[C@H]2c2[nH]c4ccc(I)cc4c2C[C@@]3(O)[C@H]1C5", 17]
]}
